# Test system: New Zealand White rabbits
# assay-info: Rabbit cutaneous bleeding time (CBT)
# condition-info: rabbit, Example 1; at the % P.A. inhibition given
Where a SMILES comes first, the peptide text is derived from it. Bridges are numbered along the chain shown (N, C = ends). [ ]: non-standard residue; d: D form.
observation-type: Rabbit BT Ratio
Give bare numbers.

N=C(N)NCCC[C@@H]1NC(=O)[C@@H](Cc2ccc(O)c(Br)c2)NC(=O)C[S+]([O-])C[C@@H](C(=O)N[C@@H](CCCCN)C(N)=O)NC(=O)[C@H](CC(=O)O)NC(=O)CNC1=O (single isomer, unassigned) [7/36]	0.77

// switching to the query molecule
Ask: Give the value of Rabbit BT Ratio reported for the following: N=C(N)NCCC[C@@H]1NC(=O)[C@@H](Cc2ccc(O)cc2)NC(=O)CSC[C@@H](C(=O)N[C@@H](CCCCN)C(N)=O)NC(=O)[C@H](CC(=O)O)NC(=O)CNC1=O [7/3] ({CH2CO}-[dY]RGDCK-NH2; thioether N-5)
Result: 1.95
